The reported numbers originate from ChEMBL document CHEMBL4706499.

Overview of reported pIC50 across a group of compounds:
- target: Protein deacetylase HDAC6 (Homo sapiens)
- Sequence (Q9UBN7 whole entry): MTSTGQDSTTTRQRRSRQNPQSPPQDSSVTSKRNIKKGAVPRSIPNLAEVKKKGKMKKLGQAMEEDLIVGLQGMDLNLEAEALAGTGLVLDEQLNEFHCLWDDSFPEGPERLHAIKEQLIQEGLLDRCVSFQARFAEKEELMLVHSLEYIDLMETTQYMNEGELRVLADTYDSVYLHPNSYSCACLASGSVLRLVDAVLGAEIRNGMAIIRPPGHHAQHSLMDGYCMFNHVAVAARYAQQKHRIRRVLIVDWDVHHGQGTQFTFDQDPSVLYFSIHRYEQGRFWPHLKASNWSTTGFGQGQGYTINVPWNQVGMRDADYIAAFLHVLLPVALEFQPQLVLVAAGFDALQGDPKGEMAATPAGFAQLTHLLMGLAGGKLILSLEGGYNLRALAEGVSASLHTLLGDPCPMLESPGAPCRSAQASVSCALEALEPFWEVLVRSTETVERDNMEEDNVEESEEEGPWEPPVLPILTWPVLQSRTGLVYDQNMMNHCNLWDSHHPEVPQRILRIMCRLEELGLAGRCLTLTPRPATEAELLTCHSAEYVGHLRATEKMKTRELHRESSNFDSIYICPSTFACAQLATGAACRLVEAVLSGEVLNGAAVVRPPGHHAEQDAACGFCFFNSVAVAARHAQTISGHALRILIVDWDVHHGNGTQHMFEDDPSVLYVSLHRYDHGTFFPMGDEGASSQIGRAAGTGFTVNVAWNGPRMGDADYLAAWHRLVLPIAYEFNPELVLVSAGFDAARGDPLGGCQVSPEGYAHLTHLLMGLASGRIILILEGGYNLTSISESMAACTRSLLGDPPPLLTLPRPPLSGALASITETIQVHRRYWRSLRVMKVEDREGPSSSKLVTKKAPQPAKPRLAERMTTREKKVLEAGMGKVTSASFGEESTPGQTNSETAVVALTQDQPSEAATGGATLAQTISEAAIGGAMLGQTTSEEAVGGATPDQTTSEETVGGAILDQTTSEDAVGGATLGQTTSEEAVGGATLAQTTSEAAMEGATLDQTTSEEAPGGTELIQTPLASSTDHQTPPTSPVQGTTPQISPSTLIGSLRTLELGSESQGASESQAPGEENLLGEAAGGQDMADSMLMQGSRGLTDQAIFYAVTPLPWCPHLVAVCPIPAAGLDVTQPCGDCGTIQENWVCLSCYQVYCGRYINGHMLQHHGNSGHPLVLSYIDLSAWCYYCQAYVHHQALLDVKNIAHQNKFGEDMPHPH
- experimentalDetails: Inhibition of recombinant full length human HDAC6 expressed in SF9 baculovirus using FAM- labelled acetylated peptide as substrate measured by Electrophoretic mobility shift assay
pIC50: −log10 of the molar value.
readoutLabel: pIC50

structure: O=C(/C=C/c1ccc(CNC(=O)c2c(F)c(F)c(F)c(F)c2F)cc1)NO
readoutLabel: pIC50
readoutRelation: =
resultValue: 7.85

structure: O=C(NO)c1ccc(NC(=O)c2ccc(C3CC3)cc2)cc1
readoutLabel: pIC50
readoutRelation: =
resultValue: 8.55

structure: O=C(/C=C/c1ccc(CN(C(=O)c2c(F)c(F)c(F)c(F)c2F)C2CC2)cc1)NO
readoutLabel: pIC50
readoutRelation: =
resultValue: 7.92

structure: CC(C)(C)c1ccc(C(=O)N(Cc2ccc(C(=O)NO)cc2)C2CC2)cc1
readoutLabel: pIC50
readoutRelation: =
resultValue: 7.68

structure: CC(C)N(Cc1ccc(C(=O)NO)cc1)C(=O)c1c(F)c(F)c(F)c(F)c1F
readoutLabel: pIC50
readoutRelation: =
resultValue: 7.85

structure: CN(Cc1ccc(C(=O)NO)cc1)C(=O)c1c(F)c(F)c(F)c(F)c1F
readoutLabel: pIC50
readoutRelation: =
resultValue: 7.76

structure: CC(C)(C)c1ccc(C(=O)NCc2ccc(C(=O)NO)cc2)cc1
readoutLabel: pIC50
readoutRelation: =
resultValue: 7.49

structure: O=C(NO)c1ccc(NC(=O)c2ccc(F)cc2)cc1
readoutLabel: pIC50
readoutRelation: =
resultValue: 8.17

structure: CCN(C(=O)c1ccc(C(C)(C)C)cc1)c1ccc(C(=O)NO)cc1
readoutLabel: pIC50
readoutRelation: <
resultValue: 6.00

structure: O=C(NO)c1ccc(NC(=O)c2ccc(C(F)(F)F)cc2)cc1
readoutLabel: pIC50
readoutRelation: =
resultValue: 7.65

structure: CC(C)(C)c1ccc(CC(=O)Nc2ccc(C(=O)NO)cc2)cc1
readoutLabel: pIC50
readoutRelation: =
resultValue: 7.89
